# koff per entry
# Target: T1, extracellular domain of cyno ILT3 (cynoILT3-ECD) (cynomolgus monkey)
# T1 chain: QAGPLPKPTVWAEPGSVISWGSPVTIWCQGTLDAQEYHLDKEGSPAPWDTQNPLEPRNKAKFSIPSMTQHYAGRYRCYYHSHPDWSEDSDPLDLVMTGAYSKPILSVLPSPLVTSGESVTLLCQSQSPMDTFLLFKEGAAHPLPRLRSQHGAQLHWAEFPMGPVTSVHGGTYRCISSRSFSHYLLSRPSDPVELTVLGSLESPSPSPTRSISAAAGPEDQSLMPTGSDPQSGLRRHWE
# Test Name: SPR (Biacore), antibody captured via anti-Fc on CM5 chip, soluble ILT3-ECD injected, 37 C
Reply numerically in s⁻¹, unit not repeated.

anti-ILT3 antibody 3A3 (antibody, V domains shown, Mouse monoclonal antibody from hybridoma) VH: QVQLKESGPGLVAPSQSLSITCTVSGFSLTSYGVHWVRQPPGKGLEWLGVIWPGGTINYNSALMSRLSISKDNSKSQVFLKLNSLQTDDTAMYYCASDKYDGGWFAYWGQGTLVTVSA VL: DIVMTQSQKFMSTSVGDRVSITCKASQNVRTAVAWYQQKPGQSPEALIYLASNRHTGVPDRFTGSGSGTDFSLSISNVQSEDLADYFCLQHLNYPLTFGSGTKLEIK :: 0.021
anti-ILT3 antibody 45G10 (antibody, V domains shown, Mouse monoclonal antibody from hybridoma) VH: EVQLVESGGGLVKPGGSLKLSCAASGFTFSDYGMHWVRQAPEKGLEWVAYIFSGSSTIYYADTVKGRFTISRDNAKNTLFLQMTSLRSEDTAMYYCARADGRGAMDYWGQGTSVTVSS VL: DVQMTQTTSSLSASLGDRVTISCRASQDISKFLNWYQQKPDGTVTLLIYYTSRLHSGVPSRFSGSGSGTDYSLTISNLDQEDIATYFCQQGNTLPWTFGGGTKLEIK :: 0.00076

get_value(item= anti-ILT3 antibody 12A12 (antibody, V domains shown, Mouse monoclonal antibody from hybridoma) VH: EVQLQQSGPELVKPGASVKISCKASGYTFTDYNMDWVKQSHGKSLEWIGYIYPNNGGTGYNQKFNSKATLTVDKSSSTAYMELHSLTSEDSAVYYCASSPYYDYVGSYAMDYWGQGTSVTVSS VL: QIVLTQSPAIMSASLGERVTMTCTASSSVSSSYLHWYQQKPGSSPKLWIYSTSNLASGVPARFSGSGSGTSYSLTISSMEAEDAATYYCHQYHRSPRTFGGGTKLEIK , readout=koff) returns 0.00028

// anti-ILT3 antibody 53F10 (antibody, V domains shown, Mouse monoclonal antibody from hybridoma) VH: EVQVVESGGGLVKPGGSLKLSCAASGFTFSDYGMHWVRQAPEKGLEWVAYISTGIITVYYADTVKGRFTMSRDNAKNTLFLQMTSLRSEDTAIYYCARADGRGAMDYWGQGTSVIVSS VL: DIQMTQTTSSLSASLGDRVTISCRASQDISNFLNWYQQKPDGTVTLLIYYTSRLHSGVPSRFSGSGSGTDYSLTISNLEQEDFATYFCQQGNTLPWTFGGGTKLEIK : koff value = 0.0055

Field koff (entry anti-ILT3 antibody 5A7 (antibody, V domains shown, Mouse monoclonal antibody from hybridoma) VH: EVKLVESGGGLVKPGGSLKLSCAASGFTFSSYGMSWVRQTPEKRLEWVATISGGGSYTNYPDSVKGRLTISRDNAKKNLYLEMSSLRSEDTALYYCARREWRMTLYAMDYWGQGTSVTVSS VL: NIVLTQSPASLAVSLGQRATISCRASESVDSYGNSFMHWYQQKPGQAPKLLIYLTSNLESGVPARFSGSGSRTDFTLTIDPVEADDAATYYCQQNNEDPFTFGSGTKLEIK ) reads 0.0022

Lab note: anti-ILT3 antibody 16C5 (antibody, V domains shown, Mouse monoclonal antibody from hybridoma) VH: EVQLQQSGPELVKPGASVKISCKASGYTFTDYNMDWVKQSHGKSLEWIGYIYPSNGGTGYNQKFKSKATLTVDKSSNTAYMELHSLTSEDSAVYYCARVPYYDYLYYYAMDYWGQGTSVTVSS VL: QIVLSQSPAILSASPGEKVTMACRASSSVSFMHWYQQKPGSSPQPWIYATSNLASGVPARFSGSGSGTSYSLTISRVEAEDAATYYCQQWSTNPYMYTFGGGTKLEIK gave koff of 9e-05

Short answer for anti-ILT3 antibody 48A6 (antibody, V domains shown, Mouse monoclonal antibody from hybridoma) VH: EVQLVESGGDLMKPGGSLKLSCAASGFTFSSYGMSWVRQTPDKRLEWVATISSGGTYTFYPDSVKGRFTISRDNAKNTLYLQMSSLKSEDTAMYYCARRGWLLHYYAMDYWGQGTSVTVSS VL: NIVLTQSPASLAVSLGQRATISCRPSESVDSFGNSFMHWFQQKPGQPPKLLIYLSSKLESGVPARFSGSGSRTDFTLTIDPVEADDAATYYCQQHNEDPFTFGSGTKLEIK : koff was 0.024
